This collection of values is drawn from PubChem BioAssay (NCI).

- System: OVCAR-8 ovarian
- Method: NCI tumour cell line growth inhibition, 48 h
Measured parameter: TGI

Note TGI for the compound shown: O=c1[nH]c2nccn2c(Cl)c1Br
39.3 µM

Note TGI for the compound shown: O=C(/C=C\c1cccc2ccccc12)c1ccc(Br)cc1
33 µM

Note TGI for the compound shown: CCCCC1Cc2cc(OC)ccc2-c2nc3cc(OC)ccc3n21 (centres undefined) (tested in a mixture with another compound)
31.6 µM

Note TGI for the compound shown: Cc1ncc([N+](=O)[O-])n1CC(O)Cn1cnc([N+](=O)[O-])n1 (centres undefined)
> 100 µM

Note TGI for the compound shown: C=C1C(C2(C)C=CC(=O)OC3(C)COC(=O)CC32)C(OC=O)C(OC(=O)C(O)C(C)CC)C2(C)C(c3ccoc3)CC(OC(C)=O)C12O (centres undefined)
> 100 µM

Note TGI for the compound shown: O=C(CCc1ccc(O)c(O)c1)c1ccc(O)c(O)c1O
74.2 µM

----------
- Tested on: HOP-92 NSCLC
- Method: NCI tumour cell line growth inhibition, 48 h
Measured parameter: TGI (µM)
# number only, unit µM dropped from output

Note TGI for the molecule shown: C[C@@H](Oc1cc(-c2cnn(C3CC4(CCNCC4)C3)c2)cnc1N)c1c(F)ccc(Cl)c1Cl
3.13

Note TGI for the molecule shown: O=C(/C=C/c1ccc2c(c1)OCO2)c1ccccc1
41.3

Note TGI for the molecule shown: CCC/C(Cl)=N\OC(=O)Nc1ccc(Br)cc1
9.17

----------
- Tested on: NCI-H226 lung
- Method: NCI tumour cell line growth inhibition, 48 h
Recorded TGI values for a group of compounds are listed next.

Reference set, count: 8
Compound | Subject of test | Reported result
O=C(/C=C\c1cccc2ccccc12)c1ccc(Br)cc1 | NCI-H226 lung | > 100 µM
CNC(=O)c1ccc(Nc2nc(OC3CCCC3)c3c(-c4ccc5nc(C)oc5c4)c[nH]c3n2)c(OC)c1 | NCI-H226 lung | > 100 µM
Cc1cc(S(=O)(=O)/N=C(\N)n2nc(C)c(C)c2C)c(SCc2ccccc2)cc1Cl | NCI-H226 lung | > 100 µM
O=c1[nH]c2nccn2c(Cl)c1Br | NCI-H226 lung | 89.4 µM
CCC1=NC(N/N=C/c2ccccc2O)=N/C1=C\c1ccccc1O | NCI-H226 lung | > 69 µM
CCOC(=O)c1ccc2[nH]c(Cc3[nH]c4ccc(C(=O)OCC)cc4c3C)c(C)c2c1 | NCI-H226 lung | 23.2 µM
COC(=O)C1=C(C(=O)OC)C(C(=O)c2ccccc2)N2N=C(c3ccc(Cl)cc3)C=CC12 (centres undefined) | NCI-H226 lung | 66.1 µM
C1=Cc2nc1c(-c1ccccc1)c1ccc([n-]1)c(-c1ccccc1)c1nc(c(-c3ccccc3)c3ccc([n-]3)c2-c2ccccc2)C=C1.[Zn+2] | NCI-H226 lung | > 100 µM

Note TGI for the compound shown: c1ccc2c(c1)n1c(N3CCOCC3)[n+]3ccccc3c1c1c3cccc[n+]3c(N3CCOCC3)n21
> 100 µM

----------
Recorded TGI values for a group of compounds are listed next.
- Test system: RPMI-8226 leukemia
- Method: NCI tumour cell line growth inhibition, 48 h
# number only, unit µM dropped from output

Reference set, count: 3
Structure string | Unit text | TGI
C[C@@H](Oc1cc(-c2cnn(C3CC4(CCNCC4)C3)c2)cnc1N)c1c(F)ccc(Cl)c1Cl | µM | 4.95
O=C1C(Br)=C(c2ccccc2)C(c2ccccc2)=C1c1ccccc1 | µM | 5.22
COc1cc(-c2ccc(-[n+]3nc(-c4ccc([N+](=O)[O-])cc4)nn3-c3ccc([N+](=O)[O-])cc3)c(OC)c2)ccc1-[n+]1nc(-c2ccc([N+](=O)[O-])cc2)nn1-c1ccc([N+](=O)[O-])cc1 | µM | 67.8

Note TGI for the compound shown: Cc1cccc(Oc2ccc(Nc3ncnc4ccc(NC(=O)CN5CCN(C)CC5)cc34)cc2Cl)c1
4.39

Note TGI for the compound shown: C[C@]12CC[C@H]3[C@@H](CC=C4C[C@@H](O)CC[C@@]43C)[C@@H]1C/C(=C\c1cccc(OCCCn3ccnc3)c1)[C@@H]2O
25

Note TGI for the compound shown: C=C(CO)[C@H]1CC/C(C)=C/CC/C(C)=C/C/C=C(\C)[C@H](O)C1
51.6

Note TGI for the compound shown: COc1ccc2c(c1)C(=O)c1c-2c(N2CCN(C(=O)CN(C)C)CC2)nc2ccccc12
28.6

Note TGI for the compound shown: CCN(CC)CCN1CCN=c2c3cc(OC)ccc3n3cnc4ccc1c2c43
1.3

Note TGI for the compound shown: O=C1C=CC(=O)N1c1ccc2c(c1)Cc1cc(NC(=O)C(F)(F)F)ccc1-2
14.3

----------
- System: OVCAR-3 ovarian
- Method: NCI tumour cell line growth inhibition, 48 h
Measured parameter: TGI

Reference set, count: 5
Compound | Measured parameter | Reported result
Cc1ccc(S(=O)(=O)Oc2coc(CO)cc2=O)cc1 | TGI | 31.9 µM
CC1CC(C)C(=O)C(C(=O)CC2CC(=O)NC2=O)C1 (stereo unspecified) | TGI | > 100 µM
O=C1OC2(c3ccccc31)c1cc(I)c(O)c(I)c1Oc1c2cc(I)c(O)c1I | TGI | > 100 µM
O=C1CC(c2ccccc2)NCN1 (stereo unspecified) | TGI | > 100 µM
CCOC(=O)C1=C(C)C2C3C(=O)NC(=O)C3C1(C)C1C(=O)NC(=O)C21 (stereo unspecified) | TGI | > 100 µM

Proceed to the following item.
Note TGI for the compound shown: COC(=O)C(Cc1ccccc1)C(=O)NC(CNC(=O)OCc1ccccc1)C(=O)OCc1ccccc1 (stereo unspecified)
48.7 µM

----------
- Tested on: A549 NSCLC
- Method: NCI tumour cell line growth inhibition, 48 h
Measured parameter: GI50

Compound | Measured parameter | Reported result
Cc1cc(Nc2nc(N3CCOCC3)nc3ccccc23)n[nH]1 | GI50 | 5.2 µM

# return GI50 for O=C1CN2CCC1C/C2=C\c1ccnc2c(Cl)cccc12 (stereo not drawn) , test system: A549 NSCLC
> 100 µM

# return GI50 for C[C@@H](Oc1cc(-c2cnn(C3CC4(CCNCC4)C3)c2)cnc1N)c1c(F)ccc(Cl)c1Cl , test system: A549 NSCLC
1.04 µM

# return GI50 for CC1=C([Se]CC(OC(=O)[C@@H](CSSC(C)(C)C)NC(=O)C(C)(C)C)C(=O)NCCCCCC(=O)OCc2ccccc2)C(=O)c2ccccc2C1=O (stereo partly drawn) , test system: A549 NSCLC
2.11 µM

# return GI50 for COc1cc(-c2ccc(-[n+]3nc(-c4ccc([N+](=O)[O-])cc4)nn3-c3ccc([N+](=O)[O-])cc3)c(OC)c2)ccc1-[n+]1nc(-c2ccc([N+](=O)[O-])cc2)nn1-c1ccc([N+](=O)[O-])cc1 , test system: A549 NSCLC
3.46 µM

# return GI50 for CCC(=O)Nc1ccc2c(c1)CN1C(=O)c3ccccc3C1=N2 , test system: A549 NSCLC
> 100 µM

# return GI50 for CCC[CH2][Sn]([CH2]CCC)([O]C(=O)c1cccc(F)c1F)[O][Sn]([CH2]CCC)([CH2]CCC)[O]C(=O)c1cccc(F)c1F , test system: A549 NSCLC
1.78 µM

# return GI50 for N#Cc1c(SCc2ccccc2)nc2[nH]c(=S)[nH]c(=S)c2c1-c1ccco1 , test system: A549 NSCLC
64.1 µM

----------
- Test system: IGROV1 ovarian
- Method: NCI tumour cell line growth inhibition, 48 h
Measured parameter: TGI

Compound | TGI
O=C(Nc1nc(-c2ccc(Cl)cc2)cs1)c1ccc(O)c(O)c1 | 8.04 µM
COc1ccc(C(=O)O)c2c(=O)c3ccccc3[nH]c12 | > 100 µM
Cc1nc2c(s/c(=N\N)n2-c2ccccc2)c(=O)[nH]1 | > 100 µM

Note TGI for the compound shown: C/C(=C\c1csc(C)n1)[C@@H]1C[C@@H]2O[C@]2(C)CCC[C@H](C)[C@H](O)[C@@H](C)C(=O)C(C)(C)[C@@H](O)CC(=O)O1 (tested in a mixture with another compound)
> 1 µM

Note TGI for the compound shown: C[C@@H](Oc1cc(-c2cnn(C3CC4(CCNCC4)C3)c2)cnc1N)c1c(F)ccc(Cl)c1Cl
7.91 µM

----------
- System: HCT-15 colon
- Method: NCI tumour cell line growth inhibition, 48 h
Measured parameter: TGI

Reference set, count: 5
Compound | TGI
Nc1c(C(=O)Nc2cccc3ccccc23)sc2nc3c(cc12)CCCCC3 | > 50 µM
O=C(Nc1nc(-c2ccc(Cl)cc2)cs1)c1ccc(O)c(O)c1 | 18.3 µM
O=S(=O)([N-]c1nc2ccccc2nc1-[n+]1ccccc1)c1ccccc1 | > 100 µM
Cc1cc(S(=O)(=O)/N=C(\N)n2nc(C)c(C)c2C)c(SCc2ccccc2)cc1Cl | > 100 µM
Cc1cc(Nc2ncc(Cl)c(Nc3ccccc3S(=O)(=O)C(C)C)n2)c(OC(C)C)cc1C1CCNCC1 | 2.59 µM

Proceed to the following item.
# return TGI for CN1CCC23c4ccccc4NC1C21CCN(C)C3Nc2ccccc21 , test system: HCT-15 colon
> 375 µM
